Value source: PubChem BioAssay

TEST METHOD NOTES: binders of probe aFST on microarray, primary screen, stem cell growth factor project, biochemical, small-molecule microarray, fluorescence 635/667 (AID 1086);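 also: score merges 667 nm fluorescence with signal-to-noise of each printed compound spot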
EXPERIMENTAL CONDITIONS: higher = more signal
Returns t if the recorded composite z-score is greater than or equal to 0.1, and f otherwise.

COMPOUND | LABEL CLASS
C=CCNC(=O)[C@H]1[C@@H]2C(=O)O[C@@H](c3ccccc3)[C@@H](c3ccccc3)N2[C@@H](c2ccc(OCCO)cc2)[C@]12C(=O)Nc1ccc(C#CC3=CCCCC3)cc12 | t

Alright, here's another compound for you.
**Query** Has COc1ccc(C(O)C2C=CC3C(=O)N(c4ccccc4)C(=O)C3N2Nc2ccccc2F)cc1OCc1ccccc1 (configuration not stated) a recorded composite z-score greater than or equal to 0.1?
**Result** t

* * *

TEST METHOD NOTES: cell viability in Huh7 cells, primary screen, cytotoxicity control for HCV replication inhibitor project, CellTiter-Glo luminescence, basal, 48 h (AID 1143);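 also: Huh7 hepatoma cells carrying a hepatitis C replication reporter with no stimulus; test concentration not given here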
EXPERIMENTAL CONDITIONS: Huh7 HCV replicon, higher = more signal, called active from +8 up or from −8 down
Returns yes if the recorded z-score is greater than or equal to -0.6, and no otherwise.

Please review the entries below; each comes with its answer.
COMPOUND | LABEL CLASS
[N-]=[N+]=NCc1ccccc1[C@@H]1OC(c2ccc(OCCCO)cc2)=N[C@]1(CCS(=O)(=O)c1ccccc1)C(=O)NCc1ccccc1 | no
O=C(NCc1ccccc1)[C@@]1(CCS(=O)(=O)c2ccccc2)N=C(c2ccc(OCCCO)cc2)O[C@H]1c1ccccc1 | no
O=C1C2C=CC(C(O)C(c3ccccc3)c3ccccc3)N(n3cnnc3)C2C(=O)N1Cc1ccccc1 (stereo unspecified) | yes
C=C(COC)/C(=C/C[C@@H](OC(C)=O)c1ccc(CO)o1)c1cnc2ccccc2c1 | yes
COc1ccc(C(O)C2C=CC3C(=O)N(c4ccccc4)C(=O)C3N2Nc2ccccc2F)cc1OCc1ccccc1 (stereo unspecified) | yes
C=CCOC(=O)[C@H]1[C@@H]2C(=O)O[C@@H](c3ccccc3)[C@@H](c3ccccc3)N2[C@@H](c2ccc(OCCOC(=O)[C@H]3C[C@H]4C(=O)N5CCC[C@H]5C(=O)N4[C@H]3c3ccc(O)cc3)cc2)[C@]12C(=O)Nc1ccccc12 | yes

**Query** Has "[N-]=[N+]=NCc1ccccc1[C@H]1OC(c2ccc(OCCCO)cc2)=N[C@@]1(Cc1ccccc1)C(=O)NCc1ccccc1" a recorded z-score greater than or equal to -0.6?
**Result** no

**Query** Has O=C1NC(=O)C2C1C=CC(C(O)Cc1ccccc1)N2Nc1ccc(Cl)cc1Cl (stereo unspecified) a recorded z-score greater than or equal to -0.6?
**Result** yes

**Query** Has "CCOC(=O)C=Cc1cc([N+](=O)[O-])ccc1O" a recorded z-score greater than or equal to -0.6?
**Result** no

**Query** Has "CN(C)CCCNC(=O)[C@@]1(c2ccc([N+](=O)[O-])cc2)CC(=O)N(C2CCCCC2)[C@@H]1c1ccc(CO)cc1I" a recorded z-score greater than or equal to -0.6?
**Result** no

**Query** Has "COc1ccc(CCNC(=O)[C@@]2(C)c3ccccc3C(=O)N(Cc3cc(F)cc(C(F)(F)F)c3)[C@H]2c2ccc(CO)cc2)cc1" a recorded z-score greater than or equal to -0.6?
**Result** no

**Query** Has CC1CC/C=C\[C@H]2OC34C=CCN(c5ccc(Cl)cc5)C(=O)[C@H]3N(CCO)C(=O)[C@]4(C)C2C(=O)O1 (stereo partly specified) a recorded z-score greater than or equal to -0.6?
**Result** no

**Query** Has O=C1C2C=CC(C(O)c3ccc(F)cc3)N(Nc3ccccc3F)C2C(=O)N1c1ccccc1 (stereo unspecified) a recorded z-score greater than or equal to -0.6?
**Result** yes

**Query** Has "COC(=O)[C@@]1(Cc2ccc(F)cc2)[C@@H]2[C@@H](CC(=O)[C@H]2CC(=O)C(=O)N(C)C)CN1C(=O)c1ccccc1" a recorded z-score greater than or equal to -0.6?
**Result** no

**Query** Has "CC(C)C[C@@H]1NC(=O)[C@@H]2C[C@H](C(=O)NCCCCCN)[C@H](c3cccc(OCCO)c3)N2C1=O" a recorded z-score greater than or equal to -0.6?
**Result** yes

**Query** Has N#Cc1ccc(NN2C(C(O)c3c(F)cccc3Cl)C=CC3C(=O)N(c4ccccc4)C(=O)C32)cc1 (stereo unspecified) a recorded z-score greater than or equal to -0.6?
**Result** yes
